The reader will find reported GI50 values listed item by item below.
Test system: NCI/ADR-RES
Test: NCI tumour cell line growth inhibition, 48 h
Active and inactive are the calls of the source. No stated cut-off is given here; in the data, active = GI50 up to about 1.1 µM and inactive = higher.

Known results for compounds:
- O=C(O)c1nnsc1-c1csnn1: > 100 µM (inactive)
- CC(/C=C/C=C/C=C/C=C/C=C/C(=O)C1=C(O)C(CCC(=O)O)N(C)C1=O)=C\C(C)C(OC1CC(O)C(O)C(C)O1)C(C)C (stereo unspecified): 13 µM (inactive)

Looking for the measured GI50 of O=C(NC(=S)NC(=O)c1cc(O)c(O)c(O)c1)c1cc(O)c(O)c(O)c1 , can you help? 23.4 µM (inactive)

Dear colleague, I am looking for the recorded GI50 of the following compound: COC1C(O)C(O[C@H]2CC[C@@]3(C)C(CC[C@@H]4[C@@H]3CC[C@]3(C)[C@@H](C(C)OC5OC(CO)C(O)C(O)C5O)CC[C@]43O)C2)OC(C)C1OC1OC(CO)C(O)C(O)C1O (stereo partly specified) > 100 µM (inactive)

Dear colleague, I am looking for the recorded GI50 of the following compound: O=C(NCCCCNCCCNC(=O)c1ccccc1)c1ccccc1 > 100 µM (inactive)

Suppose we examine the compound NC(Cc1ncccn1)C(=O)O (stereo unspecified) ; what GI50 value has been reported? > 100 µM (inactive)

Would you mind telling me what GI50 value was observed for N#C/C(=C\c1ccc(F)cc1)c1nc(-c2cc3ccccc3oc2=O)cs1 ? 30.9 µM (inactive)

The reported numbers originate from ChEMBL document CHEMBL1201862.
